# system: hTREM2 (Homo sapiens, UniProt Q9NZC2)
# Sequence (Q9NZC2 19-230): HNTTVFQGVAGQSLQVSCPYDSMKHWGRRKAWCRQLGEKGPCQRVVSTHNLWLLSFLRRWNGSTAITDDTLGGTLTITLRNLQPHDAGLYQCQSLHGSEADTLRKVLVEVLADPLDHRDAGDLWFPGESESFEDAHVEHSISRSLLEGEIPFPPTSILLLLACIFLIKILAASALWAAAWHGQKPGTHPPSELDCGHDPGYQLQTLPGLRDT
# Sequence (O43914 22-113 partner): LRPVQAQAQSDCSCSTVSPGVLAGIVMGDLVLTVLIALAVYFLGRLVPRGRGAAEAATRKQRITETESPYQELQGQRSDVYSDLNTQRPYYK
# protocol-text: Phospho-Syk AlphaScreen/AlphaLISA assay in TREM2 and DAP12 overexpressing HEK293 cells (Example A1)
# Assay type: cell-based
# Design: expressed in transfected cells
# condition-description: HEK293 cells
measured-property: Emax

Cc1nc2cc(N3CCO[C@@H](c4cnn(C)c4)C3)nc(-c3cc(F)c(Cl)cc3F)c2c(=O)n1C    ++++ (Emax>300)
Cc1nnc([C@@H]2CN(c3cc4nc(C)n(C)c(=O)c4c(-c4ccc(Cl)cc4F)n3)CCO2)o1 (single isomer, unassigned)    +++ (Emax>200 and ≤300)
Cc1nc2cc(N3CCO[C@H](c4ccc(Cl)cc4)C3)nc(-c3ccc(Cl)cc3F)c2c(=O)n1C (single isomer, unassigned)    ++++ (Emax>300)
Cc1nc2cc(N3C[C@@H](c4cnn(C)c4)OC[C@H]3C)nc(-c3ccc(Cl)cc3F)c2c(=O)n1C (single isomer, unassigned)    +++ (Emax>200 and ≤300)
Cc1nc2cc(N3CCO[C@@H](c4cnn(C(CF)CF)c4)C3)nc(-c3ccc(Cl)cc3F)c2c(=O)n1C    +++ (Emax>200 and ≤300)
Cc1nc2cc(N3CCO[C@H](c4ccc(OCC(F)(F)F)nc4)C3)nc(-c3ccc(Cl)cc3F)c2c(=O)n1C    ++++ (Emax>300)
COc1cccc([C@H]2CN(c3cc4nc(C)n(C)c(=O)c4c(-c4ccc(Cl)cc4F)n3)CCO2)c1 (single isomer, unassigned)    ++++ (Emax>300)
Cc1nc2cc(N3CCO[C@@H](c4cnn(C)c4)C3)nc(-c3ccc(Cl)c(F)c3)c2c(=O)n1C    ++++ (Emax>300)
Cc1nc2cc(N3CCC[C@@H](c4cnn(C)c4)C3)nc(-c3ccc(Cl)cc3F)c2c(=O)n1C (single isomer, unassigned)    ++++ (Emax>300)
Cc1nc([C@@H]2CN(c3cc4nc(C)n(C)c(=O)c4c(-c4ccc(Cl)cc4F)n3)CCO2)no1 (single isomer, unassigned) [Example 57]    +++ (Emax>200 and ≤300)
COc1cccc([C@@H]2CN(c3cc4nc(C)n(C)c(=O)c4c(-c4ccc(Cl)cc4F)n3)CCO2)c1 (single isomer, unassigned) [Example 81]    +++ (Emax>200 and ≤300)
Cc1nc2cc(N3CCO[C@@H](c4cnn(C)c4)C3)nc(-c3ccc(Cl)cc3F)c2c(=O)n1CC(F)(F)F    ++++ (Emax>300)

----------
Measured EC50 of individual entries
# system: hTREM2 (Homo sapiens, UniProt Q9NZC2)
# protocol-text: Phospho-Syk AlphaScreen/AlphaLISA assay in TREM2 and DAP12 overexpressing HEK293 cells (Example A1)
# Assay type: cell-based
# Set-up: expressed in transfected cells
# condition-description: HEK293 cells, read-out: hTREM2 EC50
measured-property: EC50

Cc1nc2cc(N3CCO[C@H](C4CC4)C3)nc(-c3ccc(Cl)cc3F)c2c(=O)n1C    3000 to 100000 nM
Cc1nc2cc(N3CCO[C@@H](c4cnn(C(C)F)c4)C3)nc(-c3ccc(Cl)cc3F)c2c(=O)n1C (stereo partly shown)    < 50 nM
Cc1nc2cc(N3CC[C@H](c4cnn(C)c4)C3)nc(-c3ccc(Cl)cc3F)c2c(=O)n1C    3000 to 100000 nM
CCn1c(C)nc2cc(N3CCO[C@@H](c4ccnc(C)c4)C3)nc(-c3ccc(Cl)cc3F)c2c1=O    < 50 nM
Cc1nc2cc(N3CCO[C@@H](c4cnn(C)c4)C3)nc(-c3ccc(Cl)cc3F)c2c(=O)n1CC(F)(F)F    < 50 nM
CCn1c(C)nc2cc(N3CCO[C@@H](c4cnn(C)c4)C3)nc(-c3ccc(Cl)cc3F)c2c1=O    < 50 nM
Cc1ncc([C@@H]2CN(c3cc4nc(C)n(C)c(=O)c4c(-c4ccc(Cl)cc4F)n3)CCO2)cn1 (single isomer, unassigned)    50 to 500 nM

Taken from patent US20250388574A1.
